Test system: SEM cells
assay.overview: cell viability relative to DMSO control; higher = less cytotoxic
condition.summary: RPMI 5 mM glucose + 10% FBS; 48 h; 5.12 µM
property.label: cell viability (%)
Report only the number, with the unit % understood.

Sample O=[S+]([O-])(CCSSCC[S+](=O)([O-])[O][Na])[O][Na] ; cell viability observed: 124

cell viability reading for CC(Cc1ccc(O)c(O)c1)(NN)C(=O)O (stereo not given) : 110

Field cell viability (entry Cc1cc(-c2nnc3n2CCCCC3)c(C)n1-c1ccccc1 ) reads 109

Please fill in: cell viability reported for O=C(O)CCNc1cc(N2CCc3ccccc3CC2)nc(-c2ccccn2)n1 = 99.2

For reference, reported cell viability for COc1cc(NC(=O)c2ccc(-c3ccc(Cl)cc3)o2)cc(OC)c1 stands at 102

For reference, reported cell viability for C[C@H]1C[C@H]2[C@@H]3CCC4=CC(=O)C=C[C@]4(C)[C@H]3C(=O)C[C@]2(C)[C@@]1(O)C(=O)CO stands at 71.3

// recorded cell viability for Cn1cc(-c2cnn3c(N)c(Br)c([C@@H]4CCCNC4)nc23)cn1 : 22.4

The reported cell viability of the molecule COc1cccc2c(NCc3ccccc3)nc(-n3c(N)nc4ccccc43)nc12 was 54.9

Kindly note the recorded cell viability for CC1=CC=C2\N=C/3N(CC[C@@]3(O)C(=O)C2=C1)C4=CC=CC=C4 , which is 92.4

Form: molecule = C=CC(=O)Nc1cccc(Oc2nc(Nc3ccc(N4CCN(C)CC4)cc3OC)ncc2Cl)c1 ; cell viability = 22.6

----------
System: P12-Ichikawa
assay.overview: cell viability relative to DMSO control; higher = less cytotoxic
condition.summary: HPLM + 10% dialyzed FBS; 48 h; 0.569 µM
property.label: cell viability
Just the number plus its unit, please.

Given item CNNCc1ccc(C(=O)NC(C)C)cc1 , the value recorded as its cell viability is 135%

Reported cell viability of C=CC(=O)Nc1cccc(Oc2nc(Nc3ccc(N4CCN(C)CC4)cc3OC)ncc2Cl)c1 : 83%

Please fill in: cell viability reported for COc1ccccc1OCCNCC(O)COc1cccc2[nH]c3ccccc3c12 (stereo not given) = 122%

# cell viability (compound: COCCCOc1ccnc(C[S+]([O-])c2nc3ccccc3[nH]2)c1C (stereo not given) ) is 123%

Note to self: cell viability recorded for NC(=O)c1ccc(-c2nc(-c3ccc4c(c3)OCO4)c(-c3ccccn3)[nH]2)cc1 was 116%

Record CN(c1nccc(=O)[nH]1)C1CCN(c2nc3ccccc3n2Cc2ccc(F)cc2)CC1 . Reported cell viability: 118%

Short answer for NCCCC(O)(P(=O)(O)O)P(=O)(O)O.O.O.O.[Na+] : cell viability was 102%

The recorded cell viability for CN1CCN(Cc2ccc(NC(=O)Nc3ccc(Oc4cc(NC(=O)C5CC5)ncn4)cc3)cc2C(F)(F)F)CC1 is 46.7%

// field: cell viability; key: CCOC(CN1C(=O)[C@](CC(=O)Nc2ccc(C)cc2)(NC(=O)Nc2ccc(C)cc2)c2ccccc21)OCC ; value = 115%

Documented cell viability of Cc1ccc(NC(=O)c2cccc(N(C)C)c2)cc1NC(=O)c1ccc(O)cc1 : 119%

The compound listed as C[C@H]1C[C@H]2[C@@H]3CCC4=CC(=O)C=C[C@]4(C)[C@H]3C(=O)C[C@]2(C)[C@@]1(O)C(=O)CO shows cell viability equal to 87.6%

Notebook: COC1=CC(=CC=C1)C2=CC=C(NC(=O)/C3=C(/CCC3)C(O)=O)C(=C2)F , cell viability read as 113%

Reported cell viability of CCC(=O)OC1CCC2C3CCC/4=C/C(=O)CC[C@@]4(C)C3CC[C@]12C (stereo not given in full) : 132%

Lab note: O=C(O)c1ccc(-c2c[nH]c3ncc(-c4ccccc4)cc23)cc1C1CCCC1 gave cell viability of 120%

// COc1ccc2c(OCc3nnc4ccc(-c5ccccc5)nn34)ccnc2c1 : cell viability value = 104%

Entry NC1CCC(Nc2nc(Nc3ccc(C(=O)N4CCCCC4)cc3)c3ncn(-c4cccc(F)c4)c3n2)CC1 (stereo not given) — recorded cell viability = 120%

// recorded cell viability for O=[S+]([O-])(CCSSCC[S+](=O)([O-])[O][Na])[O][Na] : 129%

Lab book: cell viability of COc1ccc(CC2c3cc(OC)c(OC)cc3CC[N+]2(C)CCC(=O)OCCCCCOC(=O)CC[N+]2(C)CCc3cc(OC)c(OC)cc3C2Cc2ccc(OC)c(OC)c2)cc1OC (stereo not given) noted as 92%

The value of cell viability measured for the compound CCCNCC(O)COc1ccccc1C(=O)CCc1ccccc1 (stereo not given) turned out to be 114%

The compound identified as Cn1c(=O)c2[nH]cnc2n(C)c1=O registered its cell viability at 116%

Per the record, O=P1(N(CCCl)CCCl)NCCCO1 (stereo not given) has cell viability of 101%

Lab book: cell viability of Cc1cc(-c2nnc3n2CCCCC3)c(C)n1-c1ccccc1 noted as 118%

The compound listed as CC(=O)Oc1cc2c(s1)CCN(C(C(=O)C1CC1)c1ccccc1F)C2.Cl (stereo not given) shows cell viability equal to 107%

Just so you know, measured cell viability for N#CC1(c2ccc(NC(=O)c3cccnc3NCc3ccncc3)cc2)CCCC1 came out at 108%

Data point: NCCCCCC(=O)O ; cell viability = 114%

----------
Test system: P12-Ichikawa
assay.overview: cell viability relative to DMSO control; higher = less cytotoxic
condition.summary: RPMI 5 mM glucose + 10% dialyzed FBS; 48 h; 0.00234 µM
Assignment: determine reported cell viability for the given compounds.
Units required after the number.

Short answer for CC(=O)OCC(=O)[C@@]12OC(C)(C)O[C@@H]1C[C@H]3[C@@H]4C[C@H](F)C/5=C/C(=O)/C=C\[C@]5(C)[C@@]4(F)[C@@H](O)C[C@]23C : cell viability was 107%

Lookup result for COc1cc(Nc2ncc(F)c(Nc3ccc4c(n3)N(COP(=O)(O)O)C(=O)C(C)(C)O4)n2)cc(OC)c1OC ; measured cell viability: 94.8%

Reported cell viability ( CN1CCN(Cc2ccc(NC(=O)Nc3ccc(Oc4cc(NC(=O)C5CC5)ncn4)cc3)cc2C(F)(F)F)CC1 ) = 113%

Record summary for COc1ccc2c(OCc3nnc4ccc(-c5ccccc5)nn34)ccnc2c1 : reported cell viability = 118%

Data point: CCOc1cc(/C=C2/C(=O)N(c3ccccc3)N=C2C)cc(Cl)c1OCC(=O)OC ; cell viability = 85.7%

Kindly note the recorded cell viability for CCc1ccc(C(=O)Nc2cc(CN3CCN(C)CC3)cc(C(F)(F)F)c2)cc1C#Cc1cnc2ccnn2c1 , which is 118%

What the record says about O=C(Nc1ccc([N+](=O)[O-])cc1Cl)c1cc(Cl)ccc1O : cell viability is 92.7%

Data point: N#CC1(c2ccc(NC(=O)c3cccnc3NCc3ccncc3)cc2)CCCC1 ; cell viability = 122%

----------
Tested on: SEM cells
assay.overview: cell viability relative to DMSO control; higher = less cytotoxic
condition.summary: HPLM + 10% dialyzed FBS; 48 h; 0.000781 µM
For each entry below, report its cell viability value.
Reply numerically in %, unit not repeated.

I looked up O=C(C[C@@H]1C/C=C\CCC(=O)O[C@H](c2ccccc2)CNC1=O)NCc1ccc(Cl)cc1 and its cell viability for SEM cells was 77

// returns cell viability for CCCc1nc2c(C)cc(-c3nc4ccccc4n3C)cc2n1Cc1ccc(-c2ccccc2C(=O)O)cc1 with SEM cells; value = 117

# value of cell viability, SEM cells, item O=C(NCCCNc1nc(Nc2cccc(NC(=O)N3CCCC3)c2)ncc1I)c1cccs1 = 55.6

Test item O=[S+]([O-])(/N=C/c1c(O)ccc2ccccc12)c1cccs1 ; SEM cells; reported cell viability was 97

The molecule COc1cc(NC(=O)c2ccc(-c3ccc(Cl)cc3)o2)cc(OC)c1 , tested on SEM cells, showed cell viability of 73

The recorded cell viability with SEM cells for CCC[C@@H](C=O)NC(=O)[C@H](CC(C)C)NC(=O)[C@H](CC(C)C)NC(=O)OCc1ccccc1 was 107

Sample OCCNC1CCCc2c1[nH]c1ccc(-c3ccccc3)cc21 (stereo not drawn) , system: SEM cells. Its cell viability is 81.1

The molecule CN(CCOc1ccc(NS(C)(=O)=O)cc1)CCc1ccc(NS(C)(=O)=O)cc1 , when measured on SEM cells, yielded cell viability of 102

Reported SEM cells cell viability for item CO[C@H]1/C=C/O[C@@]2(C)Oc3c(C)c(O)c4c(O)c(c(/C=N\N5CCN(C6CCCC6)CC5)c(O)c4c3C2=O)NC(=O)/C(C)=C\C=C\[C@H](C)[C@H](O)[C@@H](C)[C@@H](O)[C@@H](C)[C@H](OC(C)=O)[C@@H]1C was 78.4

Item O=C(O)[C@@H](c1ccc(OCc2ccc3ccccc3n2)cc1)C1CCCC1 ; assay system SEM cells; cell viability reported as 116

Result for O=C([O-])[C@H](CC(=O)N1C[C@H]2CCCC[C@H]2C1)Cc1ccccc1 , tested on SEM cells, cell viability: 79.8

Measured cell viability for this entry COc1ccc(C(=O)CC(=O)c2ccc(C(C)(C)C)cc2)cc1 on SEM cells: 70.8

The measured cell viability that NC(=O)c1cnc(-c2ccc(C3(N)CCC3)cc2)c(-c2ccccc2)c1 showed for SEM cells is 110

Entry O=[S+]([O-])(O)c1ccc2cc(/N=N/c3cc([S+](=O)([O-])O)c4cccnc4c3O)ccc2c1 : cell viability on SEM cells = 115

Noted cell viability for CCc1cccc2c3c([nH]c12)C(CC)(CC(=O)O)OCC3 (stereo not drawn) , tested on SEM cells: 105

Measured on SEM cells, Cc1cccc(N(C)C(=S)Oc2ccc3ccccc3c2)c1 has a documented cell viability of 79.4

Short answer on SEM cells for CNNCc1ccc(C(=O)NC(C)C)cc1 , cell viability: 102

Recorded cell viability for C[N+](C)(C)CC(=O)O.[Cl-] on SEM cells was 56.8
